Each entry below lists one item and its recorded fold change of affinity value.
Molecular target: T1, Human CD3eg linker (human)
T1 construct: single-chain construct; also called recombinant human CD3
T1 chain: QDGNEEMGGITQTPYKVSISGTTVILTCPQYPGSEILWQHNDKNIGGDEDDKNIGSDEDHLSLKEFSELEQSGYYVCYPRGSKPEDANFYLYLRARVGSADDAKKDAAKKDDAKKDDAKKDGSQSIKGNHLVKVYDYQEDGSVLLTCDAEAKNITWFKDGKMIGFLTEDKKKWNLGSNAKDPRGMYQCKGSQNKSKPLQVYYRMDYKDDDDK
Assay: SPR, vs unmutated H183/L072
observationType: fold change of affinity (fold)

INSERT INTO measurements (binder, readoutvalue) VALUES
  ('dBBDu183H A98K/dBBDu072L (antibody, name in Kabat numbering, V domains shown) VH: QVQLVESGGGLVQPGRSLRLSCAASGFTFSNAWMHWVRQAPGKGLEWVAQIKDKGNAYAAYYAPSVKGRFTISRDDSKNSIYLQMNSLKTEDTAVYYCHYVHYKSASTVLPAFGVDAWGQGTTVTVSS VL: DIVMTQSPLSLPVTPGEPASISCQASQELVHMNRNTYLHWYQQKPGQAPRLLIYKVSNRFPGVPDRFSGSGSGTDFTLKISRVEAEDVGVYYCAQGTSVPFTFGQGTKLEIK', 4.6),
  ('dBBDu183H L100dS/dBBDu072L (antibody, name in Kabat numbering, V domains shown) VH: QVQLVESGGGLVQPGRSLRLSCAASGFTFSNAWMHWVRQAPGKGLEWVAQIKDKGNAYAAYYAPSVKGRFTISRDDSKNSIYLQMNSLKTEDTAVYYCHYVHYASASTVSPAFGVDAWGQGTTVTVSS VL: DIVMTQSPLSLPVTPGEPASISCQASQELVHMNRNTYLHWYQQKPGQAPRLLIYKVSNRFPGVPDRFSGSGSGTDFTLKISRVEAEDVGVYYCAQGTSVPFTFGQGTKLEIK', 1.2),
  ('dBBDu183H P61D/dBBDu072L (antibody, name in Kabat numbering, V domains shown) VH: QVQLVESGGGLVQPGRSLRLSCAASGFTFSNAWMHWVRQAPGKGLEWVAQIKDKGNAYAAYYADSVKGRFTISRDDSKNSIYLQMNSLKTEDTAVYYCHYVHYASASTVLPAFGVDAWGQGTTVTVSS VL: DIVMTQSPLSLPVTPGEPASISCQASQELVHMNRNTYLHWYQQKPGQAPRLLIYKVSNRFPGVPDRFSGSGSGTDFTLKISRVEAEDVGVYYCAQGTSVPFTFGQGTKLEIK', 1.9),
  ('dBBDu183H H93T/dBBDu072L (antibody, name in Kabat numbering, V domains shown) VH: QVQLVESGGGLVQPGRSLRLSCAASGFTFSNAWMHWVRQAPGKGLEWVAQIKDKGNAYAAYYAPSVKGRFTISRDDSKNSIYLQMNSLKTEDTAVYYCTYVHYASASTVLPAFGVDAWGQGTTVTVSS VL: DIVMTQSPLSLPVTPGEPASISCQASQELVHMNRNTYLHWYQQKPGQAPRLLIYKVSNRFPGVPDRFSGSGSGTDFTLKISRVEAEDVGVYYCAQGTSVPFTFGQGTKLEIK', 0),
  ('dBBDu183H D101N/dBBDu072L (antibody, name in Kabat numbering, V domains shown) VH: QVQLVESGGGLVQPGRSLRLSCAASGFTFSNAWMHWVRQAPGKGLEWVAQIKDKGNAYAAYYAPSVKGRFTISRDDSKNSIYLQMNSLKTEDTAVYYCHYVHYASASTVLPAFGVNAWGQGTTVTVSS VL: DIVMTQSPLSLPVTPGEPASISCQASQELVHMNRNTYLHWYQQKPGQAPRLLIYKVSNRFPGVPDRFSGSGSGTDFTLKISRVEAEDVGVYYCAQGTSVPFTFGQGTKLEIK', 1.1);
